The values you see were collected from patent US20230151003A1.

- studySystem: KDR (Homo sapiens)
- Sequence (P35968 20-1356): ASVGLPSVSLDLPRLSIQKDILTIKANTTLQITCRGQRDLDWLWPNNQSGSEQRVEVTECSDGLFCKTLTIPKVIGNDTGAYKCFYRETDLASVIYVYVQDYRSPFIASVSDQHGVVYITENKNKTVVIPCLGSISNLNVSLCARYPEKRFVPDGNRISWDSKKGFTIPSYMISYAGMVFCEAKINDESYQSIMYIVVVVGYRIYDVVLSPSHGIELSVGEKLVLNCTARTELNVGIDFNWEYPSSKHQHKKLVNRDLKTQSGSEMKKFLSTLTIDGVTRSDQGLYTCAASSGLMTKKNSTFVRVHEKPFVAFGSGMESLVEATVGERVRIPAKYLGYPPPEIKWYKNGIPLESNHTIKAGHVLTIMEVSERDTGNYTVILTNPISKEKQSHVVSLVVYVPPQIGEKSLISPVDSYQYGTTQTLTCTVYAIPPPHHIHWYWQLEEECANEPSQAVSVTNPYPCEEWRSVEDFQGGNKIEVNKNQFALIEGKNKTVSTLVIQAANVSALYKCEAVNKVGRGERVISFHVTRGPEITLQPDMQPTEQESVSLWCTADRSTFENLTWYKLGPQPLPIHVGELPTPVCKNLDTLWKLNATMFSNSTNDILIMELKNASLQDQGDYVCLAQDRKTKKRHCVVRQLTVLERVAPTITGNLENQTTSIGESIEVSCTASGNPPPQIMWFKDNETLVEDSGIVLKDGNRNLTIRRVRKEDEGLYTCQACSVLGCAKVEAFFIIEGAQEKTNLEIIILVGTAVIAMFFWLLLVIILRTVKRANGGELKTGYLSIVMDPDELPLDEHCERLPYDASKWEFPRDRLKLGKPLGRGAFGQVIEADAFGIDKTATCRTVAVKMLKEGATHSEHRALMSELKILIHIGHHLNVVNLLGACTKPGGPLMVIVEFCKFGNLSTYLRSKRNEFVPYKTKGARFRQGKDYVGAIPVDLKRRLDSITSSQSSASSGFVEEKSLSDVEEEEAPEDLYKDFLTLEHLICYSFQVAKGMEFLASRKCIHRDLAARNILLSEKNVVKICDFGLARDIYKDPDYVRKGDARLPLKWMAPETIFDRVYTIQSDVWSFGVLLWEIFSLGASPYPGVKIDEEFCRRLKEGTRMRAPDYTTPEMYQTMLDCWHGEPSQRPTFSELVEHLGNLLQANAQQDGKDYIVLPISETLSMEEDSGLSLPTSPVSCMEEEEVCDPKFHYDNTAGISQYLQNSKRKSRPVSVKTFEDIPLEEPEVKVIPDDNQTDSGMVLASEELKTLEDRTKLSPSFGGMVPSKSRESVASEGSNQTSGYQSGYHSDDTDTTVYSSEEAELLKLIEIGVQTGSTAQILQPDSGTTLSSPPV
- protocolSummary: KDR autophosphorylation ELISA in HUVEC cells
- Format: cell-based
- Parameters: endogenous in cells; host or cells: HUVEC (Lonza #C2519A)
- recordedConditions: Table 3 Cellular Activities, VEGF165-stimulated, phospho-KDR ELISA
pIC50: −log10 of the molar value.
testReadout: pIC50

Some molecules with known pIC50 results, for comparison:
substanceSmiles: COc1cc2nccc(Oc3ccc(NC(=O)c4c5n(cc(-c6ccsc6)c4=O)CCOC5)cc3)c2nc1OC
pIC50: 6.00 to 6.52
--
substanceSmiles: COCCOc1cc2nccc(Oc3ccc(NC(=O)c4c(C)n(C)c(C)c(-c5ccco5)c4=O)cc3F)c2nc1OC
pIC50: ≥ 7.00
--
substanceSmiles: COc1cc2nccc(Oc3ccc(NC(=O)c4c(C)n(C)cc(-c5ccc(F)cn5)c4=O)cc3)c2nc1OC
pIC50: 6.00 to 6.52
--
substanceSmiles: COc1cc2nccc(Oc3ccc(NC(=O)c4nnc(C)c(-c5ccc(F)cn5)c4OC)cc3F)c2nc1OC
pIC50: 6.00 to 6.52

Determine its reported pIC50: "CCc1c(C(=O)Nc2ccc(Oc3ccnc4cc(OC)c(OC)nc34)cc2)c(=O)c(-c2ccco2)c(C)n1C"
6.00 to 6.52

Determine its reported pIC50: "COc1cc2nccc(Oc3ccc(NC(=O)c4c5n(cc(-c6cc(C)cs6)c4=O)CCOC5)cc3F)c2nc1OC"
≥ 7.00

====

- studySystem: KDR (Homo sapiens)
- protocolSummary: KDR autophosphorylation ELISA in HUVEC cells
- Format: cell-based
- Parameters: endogenous in cells; host or cells: HUVEC (Lonza #C2519A)
- recordedConditions: Table 3 Cellular Activities, VEGF165-stimulated, phospho-KDR ELISA
Where a name gives a salt, the structure may show the parent alone.
Some compounds, each annotated with its measured IC50.

compound: COc1cc2nccc(Oc3ccc(NC(=O)c4c5n(c(C)c(-c6ccoc6)c4=O)CCOC5)cc3F)c2nc1OC [Compound 308]
IC50: 0.3 to 1 µM

Determine its reported IC50: COc1cc2nccc(Oc3ccc(NC(=O)c4cnc(C)c(-c5ccsc5)c4O)cc3F)c2nc1OC [Compound 93]
≤ 0.1 µM

Determine its reported IC50: COc1cc2nccc(Oc3ccc(NC(=O)c4cnc(C)c(-c5cc(C)nn5C)c4O)cc3F)c2nc1OC [Compound 136]
≤ 0.1 µM

Determine its reported IC50: COc1cnc2c(Oc3ccc(NC(=O)c4c(C)n(C)c(C)c(-c5cccs5)c4=O)cc3F)ccnc2c1 [Compound 166]
0.3 to 1 µM

Determine its reported IC50: COc1cc2nccc(Oc3ccc(NC(=O)c4c5n(cc(-c6cccs6)c4=O)CCOC5)cc3F)c2nc1OC [Compound 309]
0.3 to 1 µM

Determine its reported IC50: COc1cc2nccc(Oc3ccc(NC(=O)c4cnc(C)c(-c5sccc5C)c4O)cc3F)c2nc1OC [Compound 103]
≤ 0.1 µM

Determine its reported IC50: COc1cc2nccc(Oc3ccc(NC(=O)c4c5n(cc(-c6cccs6)c4=O)CCOC5)cc3)c2nc1OC [Compound 299]
0.3 to 1 µM

Determine its reported IC50: COc1cnc2c(Oc3ccc(NC(=O)c4ccc(C)n(-c5ccc(F)cn5)c4=O)cc3F)ccnc2c1 [Compound 45]
≤ 0.1 µM

Determine its reported IC50: COc1cc2nccc(Oc3ccc(NC(=O)c4cn(CCF)c(C)c(-c5ccsc5)c4=O)cc3F)c2nc1OC [Compound 332]
≤ 0.1 µM

Determine its reported IC50: COc1cc2nccc(Oc3ccc(NC(=O)c4ccc(C)n(-c5ccc(F)c(C)n5)c4=O)cc3F)c2nc1OC [Compound 227, hydrochloride]
≤ 0.1 µM

Determine its reported IC50: COc1cc2nccc(Oc3ccc(NC(=O)c4c(C)nc(C)c(-c5ccnn5C)c4O)cc3F)c2nc1OC [Compound 108]
≤ 0.1 µM

Determine its reported IC50: COc1cc2nccc(Oc3ccc(NC(=O)c4ccc(C)n(-c5ccncc5)c4=O)cc3F)c2nc1OC [Compound 221]
≤ 0.1 µM
